SYSTEM: T1, orthogonal hCD122 receptor (hoRb), hCD122 with H133D and Y134F (human, UniProt P14784 27-550); note: reference of the scale not given here
T1 sequence: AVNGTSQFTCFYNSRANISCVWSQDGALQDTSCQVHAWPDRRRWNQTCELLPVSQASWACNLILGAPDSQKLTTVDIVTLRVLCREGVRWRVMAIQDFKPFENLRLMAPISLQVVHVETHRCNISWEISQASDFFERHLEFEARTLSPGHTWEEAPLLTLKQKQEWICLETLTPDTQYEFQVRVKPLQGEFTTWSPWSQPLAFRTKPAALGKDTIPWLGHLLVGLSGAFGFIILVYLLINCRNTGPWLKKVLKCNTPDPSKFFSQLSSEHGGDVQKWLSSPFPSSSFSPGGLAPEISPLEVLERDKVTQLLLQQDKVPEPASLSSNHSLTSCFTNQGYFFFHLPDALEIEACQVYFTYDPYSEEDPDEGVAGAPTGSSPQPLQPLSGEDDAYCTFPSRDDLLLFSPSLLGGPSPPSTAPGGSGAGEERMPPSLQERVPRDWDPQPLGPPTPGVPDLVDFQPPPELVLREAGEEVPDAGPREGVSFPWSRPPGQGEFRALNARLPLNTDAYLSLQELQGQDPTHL
METHOD: cell-based or functional assay
QUANTITY KIND: Relative Proliferation Fold Change 3F8 1:10 (fold)

Please review the entries below; each comes with its answer.
BINDER	EXPERIMENTAL VALUE
SQVLKW (ligand) APTSSSTKKTQLQLSQLLVLLKWILNGINNYKNPKLTRMLTFKFYMPKKATELKHLQCLEEELKPLEEVLNLAQSKNFHLRPRDLISNINVIVLELKGSETTFMCEYADETATIVEFLNRWITFCQSIISTLT	24.7
L18I, SQVLKA (ligand) APTSSSTKKTQLQLSQLIVLLKAILNGINNYKNPKLTRMLTFKFYMPKKATELKHLQCLEEELKPLEEVLNLAQSKNFHLRPRDLISNINVIVLELKGSETTFMCEYADETATIVEFLNRWITFCQSIISTLT	29.8
Δ88N, SQVLKA (ligand) APTSSSTKKTQLQLSQLLVLLKAILNGINNYKNPKLTRMLTFKFYMPKKATELKHLQCLEEELKPLEEVLNLAQSKNFHLRPRDLISINVIVLELKGSETTFMCEYADETATIVEFLNRWITFCQSIISTLT	0.79

a = L18F, SQVLKA (ligand) APTSSSTKKTQLQLSQLFVLLKAILNGINNYKNPKLTRMLTFKFYMPKKATELKHLQCLEEELKPLEEVLNLAQSKNFHLRPRDLISNINVIVLELKGSETTFMCEYADETATIVEFLNRWITFCQSIISTLT
b = Q74N, SQVLKA (ligand) APTSSSTKKTQLQLSQLLVLLKAILNGINNYKNPKLTRMLTFKFYMPKKATELKHLQCLEEELKPLEEVLNLANSKNFHLRPRDLISNINVIVLELKGSETTFMCEYADETATIVEFLNRWITFCQSIISTLT
Request: So which one has the bigger Relative Proliferation Fold Change 3F8 1:10 here, a or b ? Let me know the label of the one you choose.
Result: b

Hello, the source for this data is patent US20210196796A1, in case you need it.
